The compounds listed here are annotated with their inhibition at 2 µM.
target-under-test: SMO (Mus musculus)
Construct: endogenous in cells; host or cells: C3H10T1/2 (ATCC #CCL-226)
Sequence (P56726 33-793): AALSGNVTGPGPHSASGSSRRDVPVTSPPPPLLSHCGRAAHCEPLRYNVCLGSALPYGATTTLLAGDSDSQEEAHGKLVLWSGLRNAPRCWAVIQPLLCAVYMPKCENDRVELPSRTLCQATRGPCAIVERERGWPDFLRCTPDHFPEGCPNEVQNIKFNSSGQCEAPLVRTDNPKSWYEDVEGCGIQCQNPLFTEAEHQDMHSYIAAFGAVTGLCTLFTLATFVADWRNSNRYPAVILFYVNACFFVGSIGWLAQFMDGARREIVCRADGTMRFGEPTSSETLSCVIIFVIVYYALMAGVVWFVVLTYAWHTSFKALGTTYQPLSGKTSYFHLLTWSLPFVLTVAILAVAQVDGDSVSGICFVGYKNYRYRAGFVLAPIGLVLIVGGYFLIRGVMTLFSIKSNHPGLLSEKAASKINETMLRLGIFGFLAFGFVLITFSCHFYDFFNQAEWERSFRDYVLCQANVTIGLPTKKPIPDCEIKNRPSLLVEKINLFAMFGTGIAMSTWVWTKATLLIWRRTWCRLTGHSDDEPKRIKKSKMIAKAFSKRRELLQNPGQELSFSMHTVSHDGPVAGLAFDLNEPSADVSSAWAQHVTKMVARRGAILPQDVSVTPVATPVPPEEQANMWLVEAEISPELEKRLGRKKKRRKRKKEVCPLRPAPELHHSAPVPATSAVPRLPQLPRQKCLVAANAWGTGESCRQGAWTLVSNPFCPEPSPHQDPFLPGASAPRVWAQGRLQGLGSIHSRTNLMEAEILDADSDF
procedure-text: Smoothened (SMO)/Sonic Hedgehog (SHh) Transient Transcriptional Activation Assay (Gli-luciferase reporter in C3H10T1/2 cells)
Assay type: cell-based, murine
test-settings: C3H 10T1/2, 2 μM test compound, SHh 250 ng/ml, 20 hrs, read-out: SMO CELL % INHIBITION @ 2 μM
Where a name gives a salt, the structure may show the parent alone.
Respond numerically; units are % and should not be typed.

> print(dat)
                                   compound     outcome.measure  readout.unit  data.value
1  O=C(NC1CCCC(c2nc3ccccc3[nH]2)C1)c1ccnn1-c1ccccc1 (stereo not drawn)  inhibition at 2 µM             %          76
2  O=C(N[C@@H]1CCC[C@H](c2nc3ccc(Br)cc3[nH]2)C1)c1ccc2c(c1)OCCO2 [Example 224, HCl]  inhibition at 2 µM             %         106
3  Cn1cc(CN2CCCC2)cc1C(=O)NC1CCCC(c2nc3ccccc3[nH]2)C1 (stereo not drawn)  inhibition at 2 µM             %          84
4  O=C(NC1CCCC(c2nc3cc(F)c(F)cc3[nH]2)C1)c1ccc2c(c1)OCCO2 (stereo not drawn) [Example 83, HCl]  inhibition at 2 µM             %         103
5  O=C(N[C@@H]1CCC[C@H](c2nc3ccccc3[nH]2)C1)c1cc2ccccc2s1  inhibition at 2 µM             %         106

For the next question, use this compound.
Give the reported inhibition at 2 µM for COc1ccc(NC(=O)N[C@@H]2CCC[C@H](c3nc4ccccc4[nH]3)C2)c(C)c1 (system: SMO (Mus musculus)).
98

The values you see were collected from patent US20100029615A1.
